inhibition values by entry
Assay: inhibitors of TNFa-induced NFkB p65 translocation, primary screen, imaging, HUVEC, MLSMR starter and 10KST1 sets (AID 438);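 further: compound added about 3h40 before a 20 min TNFalpha stimulation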;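 on inhibition: signal is the nuclear over cytoplasmic p65 intensity ratio per well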
Details: HUVEC TNFa-induced p65 nuclear translocation; at 2 µM, stronger effect = higher value, 0% TNFa-plus-vehicle, 100% no-TNFa wells
Could you give me the number in %? Just the number is fine.

compound: Cc1cc(C)nc(NC2=NCC(=O)N2c2ccc(Cl)cc2)n1
measure: inhibition
unit text: %
readout number: -3.3

compound: CCOC(=O)CC1=C(C(=O)OCC)C(c2cc(OC)c(OC)cc2OC)C(C#N)=C(N)O1 (stereo unspecified)
measure: inhibition
unit text: %
readout number: -10

Please give the documented inhibition of CS(=O)(=O)CCC(C(=O)n1nnc2ccccc21)N1C(=O)c2ccccc2C1=O (stereo unspecified)
-6.4

Please give the documented inhibition of CC(=O)c1c(C(C)=O)c(C)n(NC(=O)c2ccncc2)c1C
1.2

Please give the documented inhibition of C[C@@H]1C[C@H]2[C@@H]3C[C@H](F)C4=CC(=O)C=C[C@]4(C)[C@@]3(F)[C@@H](O)C[C@]2(C)[C@@]1(O)C(=O)COC(=O)C(C)(C)C
1.4

Please give the documented inhibition of N=c1c2c(-c3ccccc3)c(-c3ccccc3)n(Cc3ccccc3)c2ncn1CCCn1ccnc1
-6.7

Please give the documented inhibition of COCc1cc(=O)[nH]c(Nc2nc3ccccc3o2)n1
-4.5

----------
Test: DUSP6 inhibitors restoring Erk phosphorylation by chemical complementation, primary imaging in DUSP6-transfected HeLa (AID 609)
Conditions: HeLa MKP-3 transfected, phospho-Erk imaging KS statistic; measured here: nuclear c-Myc green intensity z-score; at 10 µM; cells stimulated with TPA for 15 min
z-score values by entry

compound: O=C(CN1C(=O)c2ccccc2C1=O)NCc1ccncc1
measure: z-score
result: -1.51
//
compound: O=[N+]([O-])c1cccc2cn[nH]c12
measure: z-score
result: -1.27
//
compound: CCOC(=O)N1CCN(C(=O)c2cn(CC)c3cc(N4CCN(C)CC4)c(F)cc3c2=O)CC1
measure: z-score
result: 0.816
//
compound: CCOC(=O)C(c1ccccc1)N1CCN(c2ccc(OC)cc2)CC1 (centres undefined)
measure: z-score
result: -0.989
//
compound: Cc1cccc(N)c1SC1CCCCC1O (centres undefined)
measure: z-score
result: -1.44

Please give the documented z-score of CCOC(=O)C1=C(CSc2nc(C)cc(C)c2C#N)OC(N)=C(C#N)C1c1cccs1 (centres undefined)
-1.39

----------
Assay: inhibitors of TNFa-induced NFkB p65 translocation, primary screen, imaging, HUVEC, MLSMR starter and 10KST1 sets (AID 438);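 further: compound added about 3h40 before a 20 min TNFalpha stimulation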
Conditions: HUVEC TNFa-induced p65 nuclear translocation; measured here: nuclei count (cytotoxicity indicator), at 2.08 µM
cell count values by entry
API note: the answer field is a bare number with no unit suffix.

Recorded results for 3 molecules are shown here.
molecule: COc1cccc(NC(=O)CC2SC(=Nc3ccccc3)NC2=O)c1 (stereo unspecified)
measure: cell count
readout number: 593
//
molecule: COc1ccc(OC)c(C2NC(=O)c3sc(=S)n(-c4ccccc4)c3N2)c1 (stereo unspecified)
measure: cell count
readout number: 612
//
molecule: COC(=O)C1C(=O)CC(C)(O)C(C(=O)OC)C1c1ccccc1F (stereo unspecified)
measure: cell count
readout number: 586

Please give the documented cell count of CNC(=O)CC(C(=O)O)c1ccc(OC(C)C)cc1 (stereo unspecified)
649

Please give the documented cell count of CC1(c2ccco2)NC(=O)NC1=O (stereo unspecified)
665

Please give the documented cell count of COc1ccc(C2N3CC4(C)CN2CC(C)(C3)C4O)cc1OC (stereo unspecified)
348

Please give the documented cell count of c1cncc(Oc2cccc(Oc3cccnc3)c2)c1
388

Please give the documented cell count of CCOC(=O)COc1nc(N(C)C)nc(N(C)C)n1
634

Please give the documented cell count of Cc1cc2c(c(=O)n1Cc1cccnc1)C(c1ccccc1)C(C#N)=C(N)O2 (stereo unspecified)
550

Please give the documented cell count of Nc1ccc(S(=O)(=O)Nc2ccccn2)cc1
684

Please give the documented cell count of CCCOc1ccc(N2C(=O)CC(N(Cc3ccc(S(N)(=O)=O)cc3)C(=O)CC)C2=O)cc1 (stereo unspecified)
441

----------
z-score values by entry
Assay: DUSP6 inhibitors restoring Erk phosphorylation by chemical complementation, primary imaging in DUSP6-transfected HeLa (AID 609)
Conditions: HeLa MKP-3 transfected, phospho-Erk imaging KS statistic; measured here: nuclear c-Myc green intensity z-score; at 10 µM; cells stimulated with TPA for 15 min
API note: the answer field is a bare number with no unit suffix.

Recorded results for 6 compounds are shown here.
compound: Cc1oc2cc(O)cc(C)c2c(=O)c1-c1cnn(-c2ccccc2)c1
z-score: 1.63
--
compound: Cc1cc(=O)[nH]c(SCC(=O)c2ccccc2)c1C#N
z-score: -1.01
--
compound: Cc1cc(/C=N\O)c(C)n1-c1ccncc1
z-score: 0.337
--
compound: COc1cccc(-c2nc(NCc3ccco3)c3ccccc3n2)c1O
z-score: 1.11
--
compound: CCOC(=O)CC1=C(C(=O)OCC)C(c2cc(OC)c(OC)cc2OC)C(C#N)=C(N)O1 (centres undefined)
z-score: -1.51
--
compound: Nc1nonc1-c1noc(-c2ccccc2)n1
z-score: 1.08

Please give the documented z-score of CCCOc1cccc(-c2nnc(N)s2)c1
-0.262

Please give the documented z-score of O=c1c(C=NCCCn2ccnc2)c(-c2ccccc2)[nH]n1-c1nc2ccccc2s1
-0.223

Please give the documented z-score of Cc1ccc2[nH]c3c(N4CCN(Cc5ccc6c(c5)OCO6)CC4)ncnc3c2c1
0.595

Please give the documented z-score of CCOc1ccc(C2/C(=C(/O)c3ccc(F)cc3)C(=O)C(=O)N2CCCN(C)C)cc1 (centres undefined)
0.0868

----------
Experiment: inhibitors of E-selectin induction by TNFa, primary screen, imaging, HUVEC, immunofluorescence, MLSMR starter and 10KST1 sets (AID 487);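 further: signal is fraction of cell area covered by stained E-selectin grains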
Conditions: HUVEC TNFalpha-induced E-selectin immunofluorescence imaging, at 2 µM; stronger effect = higher value
measure: inhibition (%)
Could you give me the number in %? Just the number is fine.

compound: Cc1c(/C(O)=C2\C(=O)C(=O)N(CCN(C)C)C2c2cccs2)cnn1-c1ccccc1 (centres undefined)
inhibition [%]: -68.6
//
compound: CCNC(=O)N(C(=O)NCC)n1c(C)nnc1C
inhibition [%]: 28.7
//
compound: COC(=O)c1ccn(C(=O)c2ccc(Cl)cc2)n1
inhibition [%]: -13.4

Now consider a different compound.
Please give the documented inhibition of Cn1c(SCC(=O)N2CCOCC2)nnc1-c1cccc(NC(=O)c2ccccc2F)c1
17.5

----------
Assay: inhibitors of E-selectin induction by TNFa, primary screen, imaging, HUVEC, immunofluorescence, MLSMR starter and 10KST1 sets (AID 487);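 further: signal is fraction of cell area covered by stained E-selectin grains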
Details: HUVEC TNFalpha-induced E-selectin immunofluorescence imaging, at 2 µM; stronger effect = higher value
Activity calls are given as the source filed them.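 Rule for the calls: active = visually confirmed hit in the image check and inhibition above 20%; inconclusive = visually confirmed hit but inhibition not above 20%; inactive = no visual hit in the image check.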
measure: inhibition

Recorded results for 4 molecules are shown here.
molecule: Cn1cnc2c1c(=O)[nH]c(=O)n2C
measure: inhibition
result: -30.6% (inactive)
--
molecule: Cc1nc2c(c(=O)n1CC1CCCO1)c1nc3ccccc3nc1n2CCC(C)C (stereo not given)
measure: inhibition
result: -30.1% (inactive)
--
molecule: CC(CN1c2ccccc2Sc2ccccc21)N(C)C (stereo not given)
measure: inhibition
result: -48.8% (inactive)
--
molecule: COC(=O)C(NC(C)=O)(Nc1nc2ccc(S(C)(=O)=O)cc2s1)C(F)(F)F (stereo not given)
measure: inhibition
result: -30.1% (inactive)

Please give the documented inhibition of O=C(CSc1nnc(-c2ccco2)c(-c2ccco2)n1)Nc1ccccc1
-30.7% (inactive)

----------
Test: inhibitors of mutant huntingtin aggregation, primary screen, imaging, exon1htt(103Q)mCFP cells, high-content imaging (AID 483);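 further: compound exposure lasted 3 days before fixation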
Conditions: exon1htt(103Q)mCFP cell line, aggregate imaging, at 2 µM; stronger effect = higher value
measure: inhibition of aggregation (%)
Could you give me the number in %? Just the number is fine.

Recorded results for 4 compounds are shown here.
compound: CCCCOc1ccccc1C(=O)NCCCC(=O)O
measure: inhibition of aggregation
unit text: %
readout number: -44.1

compound: Cc1nc2c(c(=O)n1CC1CCCO1)c1nc3ccccc3nc1n2CC(C)C (stereo not given)
measure: inhibition of aggregation
unit text: %
readout number: 12.6

compound: CC(C)OC(=O)C(C)(C)Oc1ccc(C(=O)c2ccc(Cl)cc2)cc1
measure: inhibition of aggregation
unit text: %
readout number: 28.8

compound: CN(C(=O)C(Cl)Cl)c1ccc(OC(=O)c2ccco2)cc1
measure: inhibition of aggregation
unit text: %
readout number: -17.3

Please give the documented inhibition of aggregation of CCn1nc(NC(=O)c2cccnc2)c2cc3ccccc3nc21
-3.3

----------
Test: DUSP6 inhibitors restoring Erk phosphorylation by chemical complementation, primary imaging in DUSP6-transfected HeLa (AID 609)
Details: HeLa MKP-3 transfected, phospho-Erk imaging KS statistic; measured here: cell density z-score; at 10 µM; cells stimulated with TPA for 15 min
measure: z-score
API note: the answer field is a bare number with no unit suffix.

Recorded results for 5 compounds are shown here.
compound: CC[C@]1(O)CC2CN(CCc3c([nH]c4ccccc34)[C@@](C(=O)OC)(c3cc4c(cc3OC)N(C=O)[C@H]3[C@@](O)(C(=O)OC)[C@H](OC(C)=O)[C@]5(CC)C=CCN6CC[C@]43[C@@H]65)C2)C1 (stereo partly specified)
readout number: 0.276
--
compound: CC(C)Cn1cnc2c(c1=O)c1nc3ccccc3nc1n2Cc1ccc2c(c1)OCO2
readout number: 0.279
--
compound: Cc1ccc(N2C(=O)C3ON(c4ccccc4)C(c4ccncc4)C3C2=O)cc1 (stereo unspecified)
readout number: -0.368
--
compound: CSc1ccc2c(c1)N(CCC1CCCCN1C)c1ccccc1S2 (stereo unspecified)
readout number: 0.315
--
compound: C=CCOc1nc2c(c(=O)n(C)c(=O)n2C)n1Cc1ccc(Cl)cc1
readout number: -0.719

Please give the documented z-score of CCCCC1(C(=O)OCC)CC(CN2CCOCC2)OC1=O (stereo unspecified)
-1.27

Please give the documented z-score of C=CCOc1nc(-c2ccncc2)nc2ccccc12
0.583

Please give the documented z-score of CC/C(=N\O)c1ccc(OC)c(OC)c1
-0.778

Please give the documented z-score of CN1C(=O)c2c(sc3c2CCCC3)NC1c1ccccc1O (stereo unspecified)
1.59

Please give the documented z-score of O=C(O)C1CCCCN1S(=O)(=O)c1cccc2nsnc12 (stereo unspecified)
-0.854

Please give the documented z-score of CCOC(=O)C1(c2nc(N)cs2)COC(=O)C1 (stereo unspecified)
1.01
